Study System: MMP-9 (Homo sapiens)
Sequence (P14780 94-707, species assumed): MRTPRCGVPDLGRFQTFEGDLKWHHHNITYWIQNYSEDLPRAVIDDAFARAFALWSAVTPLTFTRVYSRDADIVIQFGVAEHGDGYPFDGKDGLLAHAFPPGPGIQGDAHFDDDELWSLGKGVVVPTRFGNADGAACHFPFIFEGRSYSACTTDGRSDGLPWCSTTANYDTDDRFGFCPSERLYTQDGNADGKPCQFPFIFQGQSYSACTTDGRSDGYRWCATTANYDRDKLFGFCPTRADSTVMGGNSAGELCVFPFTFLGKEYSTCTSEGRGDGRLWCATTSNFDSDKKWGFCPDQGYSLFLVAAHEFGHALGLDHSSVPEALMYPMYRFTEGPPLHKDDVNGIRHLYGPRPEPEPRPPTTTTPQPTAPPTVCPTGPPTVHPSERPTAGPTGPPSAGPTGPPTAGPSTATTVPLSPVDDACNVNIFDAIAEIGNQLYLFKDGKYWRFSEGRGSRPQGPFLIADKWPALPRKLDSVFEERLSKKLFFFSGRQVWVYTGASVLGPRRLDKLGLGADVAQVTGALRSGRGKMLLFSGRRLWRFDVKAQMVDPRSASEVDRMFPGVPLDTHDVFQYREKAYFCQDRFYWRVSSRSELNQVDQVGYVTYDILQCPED
Measured Metric: pIC50
On this scale, pIC50 is minus log10 of a concentration expressed in M (mol/L).

Which value of pIC50 has been reported for CC(C)[C@H](C(=O)NO)N(Cc1cccnc1)S(=O)(=O)c1ccc(O)c(I)c1 [Compound 8] in the records? 6.82

Which value of pIC50 has been reported for CC(C)[C@H](C(=O)NO)N(Cc1cccnc1)S(=O)(=O)c1ccc(O)cc1 [Compound 13] in the records? 6.59

Which value of pIC50 has been reported for CC(C)[C@H](C(=O)NO)N(Cc1cccnc1)S(=O)(=O)c1ccc(Br)cc1 [Compound 14] in the records? 7.12

Which value of pIC50 has been reported for CC(C)C(C(=O)NO)N(Cc1cccnc1)S(=O)(=O)c1ccc(I)cc1 (stereo not shown) [Compound 9] in the records? 8.34

----------
Hi! I'm sharing some IC50 results obtained with MMP-2 (Homo sapiens, UniProt P08253).
Sequence (P08253 110-660, species assumed): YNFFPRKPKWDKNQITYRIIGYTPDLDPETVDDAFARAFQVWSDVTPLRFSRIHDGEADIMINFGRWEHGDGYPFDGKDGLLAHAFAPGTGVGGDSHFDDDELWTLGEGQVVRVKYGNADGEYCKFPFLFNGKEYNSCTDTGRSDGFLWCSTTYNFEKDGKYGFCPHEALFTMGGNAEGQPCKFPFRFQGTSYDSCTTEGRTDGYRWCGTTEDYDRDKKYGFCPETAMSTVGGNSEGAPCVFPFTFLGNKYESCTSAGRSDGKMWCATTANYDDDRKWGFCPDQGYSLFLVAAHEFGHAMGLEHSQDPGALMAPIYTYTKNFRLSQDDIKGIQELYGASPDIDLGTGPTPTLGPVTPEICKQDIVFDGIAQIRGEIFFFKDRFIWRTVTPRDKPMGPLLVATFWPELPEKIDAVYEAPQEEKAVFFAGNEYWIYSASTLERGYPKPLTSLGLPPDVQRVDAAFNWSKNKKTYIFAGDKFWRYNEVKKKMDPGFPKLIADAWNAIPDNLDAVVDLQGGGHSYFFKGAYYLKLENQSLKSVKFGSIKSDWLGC
Quick reminder: number only, in nM, skip the unit.

Which value of IC50 has been reported for CC(C)C(C(=O)NO)N(Cc1cccnc1)S(=O)(=O)c1ccc(I)cc1 (centres unmarked) [Compound 9] in the records? 2.5

Which value of IC50 has been reported for CC(C)[C@H](C(=O)NO)N(Cc1cccnc1)S(=O)(=O)c1ccc(O)c(I)c1 [Compound 8] in the records? 320
